# tgt: T1, Human PCSK9 Alexa Fluor 647 (human, UniProt Q8NBP7 31-692, limits assumed, Alexa Fluor 647 label (site not stated))
# T1 construct: Labelled tracer of the TR-FRET assay, 16 nM stock; also called proprotein convertase subtilisin/kexin type 9
# protocolDetails: TR-FRET competition: PCSK9-Alexa Fluor 647 vs LDLR ECD-Eu kryptate
Bridge positions count the residues as written; N and C are the ends. Square brackets hold non-standard residues; d marks the D form. Phe(3,4-Cl2) = N[C@@H](Cc1ccc(Cl)c(Cl)c1)C(=O)O; Bip = N[C@@H](Cc1ccc(-c2ccccc2)cc1)C(=O)O; Phe(4-Cl) = N[C@@H](Cc1ccc(Cl)cc1)C(=O)O; hSer = N[C@@H](CCO)C(=O)O; NMeA = CN[C@@H](C)C(=O)O
measurementKind: pIC50
The quantity pIC50 is defined as the negative base-10 logarithm of the molar concentration.

- {CH2CO}-FVDTT[Bip][NMeA][Phe(3,4-Cl2)][NMeA]ESPCG-NH2 (thioether N-13; SMILES CC(C)[C@@H]1NC(=O)[C@H](Cc2ccccc2)NC(=O)CSC[C@@H](C(=O)NCC(N)=O)NC(=O)[C@@H]2CCCN2C(=O)[C@H](CO)NC(=O)[C@H](CCC(=O)O)NC(=O)[C@H](C)N(C)C(=O)[C@H](Cc2ccc(Cl)c(Cl)c2)NC(=O)[C@H](C)N(C)C(=O)[C@H](Cc2ccc(-c3ccccc3)cc2)NC(=O)[C@H]([C@@H](C)O)NC(=O)[C@H]([C@@H](C)O)NC(=O)[C@H](CC(=O)O)NC1=O, also called 1-26; Ex. No. 1-26) [Ac*-F-V-D-T-T-B-(N-Me)A-(3,4-diCl)F-(N-Me)A-E-S-P-C*-G-NH2]: 8.62

Kindly consider the entry below.
Ask: Query (binder): {CH2CO}-FV[hSer]TTF[NMeA][Phe(4-Cl)][NMeA]DAPC-NH2 (thioether N-13; SMILES CC(C)[C@@H]1NC(=O)[C@H](Cc2ccccc2)NC(=O)CSC[C@@H](C(N)=O)NC(=O)[C@@H]2CCCN2C(=O)[C@H](C)NC(=O)[C@H](CC(=O)O)NC(=O)[C@H](C)N(C)C(=O)[C@H](Cc2ccc(Cl)cc2)NC(=O)[C@H](C)N(C)C(=O)[C@H](Cc2ccccc2)NC(=O)[C@H]([C@@H](C)O)NC(=O)[C@H]([C@@H](C)O)NC(=O)[C@H](CCO)NC1=O, also called 2-3; Ex. No. 2-3) [Ac*-F-V-HomoSer-T-T-F-(N-Me)A-(p-Cl)F-(N-Me)A-D-A-P-C*-NH2] ; field requested: pIC50
Reply: 10.40
